- System: soybean (Glycine max var. Winchester)
- testSummary: Preemergence herbicidal activity, soybean
- Type: in vivo
- conditionsUsed: Rate of Application 0.3 Kg/Ha, examined after 12-17 days
measuredParameter: PREEMERGENCE HERBICIDAL ACTIVITY (% CONTROL) SOY (%)
The reply should contain only the number, in %.

Some compounds with known PREEMERGENCE HERBICIDAL ACTIVITY (% CONTROL) SOY results, for comparison:
Request the reported PREEMERGENCE HERBICIDAL ACTIVITY (% CONTROL) SOY associated with "CC(=O)Nc1nc2c(-n3c(=O)cc(C(F)(F)F)n(C)c3=O)c(F)cc(Br)c2o1" 50

Entry "Cn1c(C(F)(F)F)cc(=O)n(-c2c(F)cc(Cl)c3[nH]cnc23)c1=O" has what PREEMERGENCE HERBICIDAL ACTIVITY (% CONTROL) SOY? 100

Tell me the measured PREEMERGENCE HERBICIDAL ACTIVITY (% CONTROL) SOY of "Cn1c(C(F)(F)F)cc(=O)n(-c2c(F)cc(Cl)c3cc(CCC(=O)O)oc23)c1=O" , please. 90

I am curious: what PREEMERGENCE HERBICIDAL ACTIVITY (% CONTROL) SOY value has been reported for "Cn1c(C(F)(F)F)cc(=O)n(-c2ccc(Cl)c3cc(C(Br)Br)oc23)c1=O" ? 40

Which measured PREEMERGENCE HERBICIDAL ACTIVITY (% CONTROL) SOY value corresponds to "Cn1c(C(F)(F)F)cc(=O)n(-c2c(F)cc(Cl)c3nc(Cc4ccccc4Cl)[nH]c23)c1=O" ? 100

I am curious: what PREEMERGENCE HERBICIDAL ACTIVITY (% CONTROL) SOY value has been reported for "CC(=O)OC(C)(C)c1nc2c(-n3c(=O)cc(C(F)(F)F)n(C)c3=O)c(F)cc(Cl)c2[nH]1" ? 100

Next compound, please.
Would you mind telling me what PREEMERGENCE HERBICIDAL ACTIVITY (% CONTROL) SOY value was observed for "Cn1c(C(F)(F)F)cc(=O)n(-c2ccc(Cl)c3cc(C(C)(C)C)oc23)c1=O" ? 70

----------
- Tested on: field corn (Zea mays var. Pioneer 3732)
- testSummary: Preemergence herbicidal activity, corn
- Format: in vivo
- conditionsUsed: Zea mays, pre-emergence, Rate of Application 0.3 Kg/Ha, examined after 12-17 days, read-out: PREEMERGENCE HERBICIDAL ACTIVITY (% CONTROL) CRN
measuredParameter: inhibition at 300 g/ha (%)
Give your result in % as a bare value.

Below, each entry is followed by its recorded inhibition at 300 g/ha result.
State the recorded inhibition at 300 g/ha for this entry: "CC(=O)OC(C)(C)c1nc2c(-n3c(=O)cc(C(F)(F)F)n(C)c3=O)c(F)cc(Br)c2o1" 100

Any idea what inhibition at 300 g/ha was measured for "CCc1nc2c(-n3c(=O)cc(C(F)(F)F)n(C)c3=O)c(F)cc(Cl)c2[nH]1" ? 100

Any idea what inhibition at 300 g/ha was measured for "Cn1c(C(F)(F)F)cc(=O)n(-c2c(F)cc(Cl)c3[nH]c(C(F)(F)F)nc23)c1=O" ? 30

Quick one: inhibition at 300 g/ha of "COc1nc2c(-n3c(=O)cc(C(F)(F)F)n(C)c3=O)c(F)cc(Br)c2o1" ? 90

I have this compound here, "CC(C)c1nc2c(-n3c(=O)cc(C(F)(F)F)n(C)c3=O)c(F)cc(Cl)c2o1" , and I need its recorded inhibition at 300 g/ha. 95

Field request: inhibition at 300 g/ha | item: "Cn1c(C(F)(F)F)cc(=O)n(-c2c(F)cc(Cl)c3[nH]c(C(F)(F)F)cc23)c1=O" 90

Here is the next item to consider.
// query inhibition at 300 g/ha value for entry "Cn1c(C(F)(F)F)cc(=O)n(-c2c(F)cc(Cl)c3[nH]c(C(C)(C)C)nc23)c1=O" 100

Each recorded value in this set is attributed to patent US6352958B1.
